- System: A549-ACTB-RAB5A
- experimental.protocol: lowest phenotypically active concentration; higher = less potent
- protocol.conditions: treatment time: 24 h
Where a name gives a salt, the structure may show the parent alone.
What lowest phenotypically active concentration was measured for each of the following?
Answers are plain numbers, in µM.

Below, 2 molecules whose answers are already recorded.
| molecule | numeric.value |
| --- | --- |
| CC(=O)N1CCN(c2ccc(OC[C@H]3CO[C@](Cn4ccnc4)(c4ccc(Cl)cc4Cl)O3)cc2)CC1 | 9 |
| CCC(C)(C)C(=O)O[C@H]1C[C@@H](C)C=C2C=C[C@H](C)[C@H](CC[C@@H]3C[C@@H](O)CC(=O)O3)[C@H]21 | 3 |

Hey, quick one: what's lowest phenotypically active concentration for each of these?
1. C=C[C@H]1CN2CC[C@H]1C[C@H]2[C@H](O)c1ccnc2ccc(OC)cc12 [Quinine dihydrochloride]
2. Fc1ccc([C@@H]2CCNC[C@H]2COc2ccc3c(c2)OCO3)cc1
3. Cc1c(O)cccc1C(=O)N[C@@H](CSc1ccccc1)[C@H](O)CN1C[C@H]2CCCC[C@H]2C[C@H]1C(=O)NC(C)(C)C

**Result**
[9, 3, 9]

State recorded lowest phenotypically active concentration for all listed molecules.
1. Cc1cccc(C)c1OCC(=O)N[C@@H](Cc1ccccc1)[C@@H](O)C[C@H](Cc1ccccc1)NC(=O)[C@H](C(C)C)N1CCCNC1=O
2. Cc1ccc(NC(=O)CCCCCC(=O)Nc2ccccc2N)cc1
3. CCCOc1ccc(CCc2nc3cc(-c4c(C)noc4C)ccc3n2CCN2CCOCC2)cc1
4. O=C(/C=C/c1ccc2ccccc2n1)c1ccncc1
5. CN[C@H]1CC[C@@H](c2ccc(Cl)c(Cl)c2)c2ccccc21

**Result**
9
1
9
9
1

Below is a list of molecules. For each, state its recorded lowest phenotypically active concentration.
1. CCCCCCCCCCNCCSSCc1ccc(Cl)cc1
2. CC(C)(C)c1cc(NC(=O)Nc2ccc(-c3cn4c(n3)sc3cc(OCCN5CCOCC5)ccc34)cc2)no1
3. CNCCCC12CCC(c3ccccc31)c1ccccc12
4. O=C1NC(=O)C(c2ccccc2[N+](=O)[O-])=C1Nc1ccc(O)c(Cl)c1

**Result**
9
3
3
9

Let me check: CCN(CC)CCNc1ccc(CO)c2sc3ccccc3c(=O)c12 , system A549-ACTB-RAB5A, measured lowest phenotypically active concentration is 9

* * *

- System: WPMY1-TP53BP1-CLTA
- experimental.protocol: phenotypically active (imaging signature differs from DMSO and reproducible) at any of 0.3-9 uM (binary (1 = active, 0 = inactive)); higher = active
- protocol.conditions: treatment time: 24 h
The categories you may choose from are active, inactive

Previously resolved entries follow.
| molecule | category |
| --- | --- |
| CC1=C(C(=O)Nc2cc3cn[nH]c3cc2F)C(c2ccc(C(F)(F)F)cc2)CC(=O)N1 (stereo not drawn) | active |
| CC/C(=C(\CC)c1ccc(O)c(CN(CC)CC)c1)c1ccc(O)c(CN(CC)CC)c1 | active |
| O=c1oc2c(O)c(O)cc3c(=O)oc4c(O)c(O)cc1c4c23 [Ellagic acid] | inactive |
| COc1c(OC2OC(CO)[C@@H](O)[C@H](O)[C@H]2O)cc2c(c1OC)-c1ccc(OC)c(=O)cc1[C@@H](NC(C)=O)CC2 (stereo partly drawn) [Colchicoside] | inactive |
| C[C@]12CC[C@@H]3c4ccc(O)cc4CC[C@H]3[C@@H]1CC[C@@H]2O [estradiol] | inactive |
| CCc1nc(-c2cccc(C)c2)c(-c2ccnc(NC(=O)c3ccccc3)c2)s1 | inactive |

**Query** Could you kindly confirm the outcome this assay logged for Cc1ccccc1C(OCCN(C)C)c1ccccc1 (stereo not drawn) [orphenadrine] ?
**Result** inactive

**Query** Recorded test outcome, item C[C@@H]1O[C@@H](O[C@H]2C(=O)c3c(O)cc(O)cc3O[C@@H]2c2ccc(O)c(O)c2)[C@H](O)[C@H](O)[C@H]1O [Astilbin]
**Result** inactive

* * *

Please go through the items and note down their phenotypically active.
- Test system: WPMY1-CANX-COX4
- experimental.protocol: phenotypically active (imaging signature differs from DMSO and reproducible) at any of 0.3-9 uM (binary (1 = active, 0 = inactive)); higher = active
- protocol.conditions: treatment time: 24 h
Give bare numbers.

Sample answers from the record:
| molecule | observable | numeric.value |
| --- | --- | --- |
| O=C(NC(CO)C(O)c1ccc([N+](=O)[O-])cc1)C(Cl)Cl (stereo unspecified) [Chloramphenicol] | phenotypically active | 0 |
| CCC[C@H](N[C@@H](C)C(=O)N1[C@H](C(=O)O)C[C@@H]2CCCC[C@@H]21)C(=O)OCC [perindopril] | phenotypically active | 0 |
| Cc1ccc(Nc2nccc(N(C)c3ccc4c(C)n(C)nc4c3)n2)cc1S(N)(=O)=O [pazopanib] | phenotypically active | 1 |
| Clc1ccc2c(c1)C(N1CCNCC1)=Nc1ccccc1O2 [amoxapine] | phenotypically active | 0 |
| CC(C)(C(=O)O)c1ccc(C(O)CCCN2CCC(C(O)(c3ccccc3)c3ccccc3)CC2)cc1 (stereo unspecified) [fexofenadine] | phenotypically active | 0 |

Each molecule below has a reported value. Please supply its phenotypically active.
1. Cc1ccc(NC(=O)CCCCCC(=O)Nc2ccccc2N)cc1
2. Cn1cnc2c(NCc3ccccc3)nc(NCCO)nc21 [Olomoucine]
3. C[C@H](NCCc1ccc(O)cc1)[C@H](O)c1ccc(O)cc1 [ritodrine]
4. CCN1C(=O)NC(c2ccccc2)C1=O (stereo unspecified) [ethotoin]
5. Cc1ccc2ccc(C(Nc3ccccc3)c3ccccc3)c(O)c2n1 (stereo unspecified)
6. CCc1c(C)[nH]c2c1C(=O)C(CN1CCOCC1)CC2 (stereo unspecified) [molindone]
7. C=C1CN(Cc2ccc(C(=O)Nc3ccccc3N)cc2)C(=O)c2ccccc21

**Result**
1
0
0
1
0
0
1

Required: phenotypically active, one value per molecule below.
1. CC(C)N(CCCNC(=O)Nc1ccc(C(C)(C)C)cc1)C[C@H]1O[C@@H](n2cc(Br)c3c(N)ncnc32)[C@H](O)[C@@H]1O
2. CNc1nc(-c2ccc3c(N)n[nH]c3c2)cc(N2C[C@@H](C(=O)NC3CCCCC3)CC[C@H]2C)n1
3. O=C(O)[C@H](Cc1c[nH]c2ccccc12)N1C(=O)c2ccccc2C1=O

**Result**
1: 1; 2: 1; 3: 0

For each listed entry, give its phenotypically active.
1. C[C@@H]1O[C@@H](O[C@H]2C(=O)c3c(O)cc(O)cc3O[C@@H]2c2ccc(O)c(O)c2)[C@H](O)[C@H](O)[C@H]1O [Astilbin]
2. COc1cccc(-c2cc(F)ccc2[C@H]2Cc3nc(N)nc(C)c3C(=O)N2)n1
3. NS(=O)(=O)Cc1noc2ccccc12 [zonisamide]
4. C=C(C)[C@@H]1CC[C@]2(C(=O)O)CC[C@]3(C)[C@H](CC[C@@H]4[C@@]5(C)CC[C@H](O)C(C)(C)[C@@H]5CC[C@]43C)[C@@H]12 [betulinic-acid]

**Result**
[0, 1, 0, 0]

Provide phenotypically active values for the following items, in order.
1. CCCOc1ccn2c(C(C)=O)cc(-c3ccccc3S(C)(=O)=O)c2c1
2. COc1ccc2c(c1)c(CC(=O)O)c(C)n2C(=O)c1ccc(Cl)cc1 [indomethacin]
3. CC(C)(C)c1ccc(C(O)CCCN2CCC(C(O)(c3ccccc3)c3ccccc3)CC2)cc1 (stereo unspecified) [terfenadine]
4. Cc1c(C(=O)N2CCOc3ccc(-c4ccc(N)nc4)cc3C2)ccc(S(C)(=O)=O)c1F
5. CC(CN(C)C)CN1c2ccccc2CCc2ccccc21 (stereo unspecified) [trimipramine]

**Result**
0
0
0
1
1

* * *

- Tested on: HepG2-TUBA1B-RELA
- experimental.protocol: phenotypically active (imaging signature differs from DMSO and reproducible) at any of 0.3-9 uM (binary (1 = active, 0 = inactive)); higher = active
- protocol.conditions: treatment time: 24 h
Where a name gives a salt, the structure may show the parent alone.
observable: phenotypically active
One number for each entry.

Sample answers from the record:
| molecule | phenotypically active |
| --- | --- |
| CC1(C(=O)O)CCC2(C)CCC3(C)C(=CC(=O)C4C5(C)CCC(OC6OC(C(=O)O)C(O)C(O)C6OC6OC(C(=O)O)C(O)C(O)C6O)C(C)(C)C5CCC43C)C2C1 (centres undefined) [Glycyrrhizic acid] | 0 |
| O=C1c2c(O)ccc(O)c2C(=O)c2c(NCCNCCO)ccc(NCCNCCO)c21 [mitoxantrone] | 1 |
| O=C(O)COc1ccc(Br)cc1/C=C1\SC(=S)N(Cc2cccnc2)C1=O | 0 |
| Cc1nc(NC(=O)N2CCC[C@H]2C(N)=O)sc1-c1csc(C(C)(C)C)n1 | 1 |
| OC[C@H]1O[C@@H](Oc2ccc(O)cc2)[C@H](O)[C@@H](O)[C@@H]1O [Arbutin] | 0 |
| CC(C)(C)c1cc(/C=C(\C#N)C(N)=S)cc(C(C)(C)C)c1O | 1 |
| CN(CCOc1ccc(C[C@H](Nc2ccccc2C(=O)c2ccccc2)C(=O)O)cc1)c1ccccn1 [GW 1929 hydrochloride] | 0 |
| COc1ccc(N2C(=O)CSC2c2cccc(Br)c2)c(OC)c1 (centres undefined) | 1 |

Please supply phenotypically active for each of the following items, keeping them in order.
1. COc1cc2ncnc(Oc3cccc(NC(=O)Nc4cc(C(C)(C)C(F)(F)F)on4)c3)c2cc1OC
2. CC1(C)CCC(C)(C)c2cc(C3(c4ccc(C(=O)O)cc4)OCCO3)ccc21
3. NC(=O)Nc1sc(-c2ccc(F)cc2)cc1C(N)=O

**Result**
[0, 0, 1]

State the recorded phenotypically active for every item in the following list.
1. COc1cc2nccc(Oc3ccc(NC(=O)C4(C(=O)Nc5ccc(F)cc5)CC4)cc3)c2cc1OC
2. O=c1[nH]cc(F)c(=O)[nH]1 [5-Fluorouracil]
3. CN1C(=O)CC(C)(c2ccccc2)C1=O (centres undefined) [methsuximide]
4. COc1cccc(-c2cc(F)ccc2[C@H]2Cc3nc(N)nc(C)c3C(=O)N2)n1
5. FC(F)(F)c1ccc(/C=C/c2nc(COc3ccc(CCCCn4ccnn4)cc3)co2)cc1
6. Cc1ccc(NC(=O)c2ccc(CN3CCN(C)CC3)cc2)cc1Nc1nccc(-c2cccnc2)n1 [Imatinib mesylate]
7. NCCCC(O)(P(=O)(O)O)P(=O)(O)O [alendronate]
8. O=S(=O)(c1cccc2cnccc12)N1CCCNCC1 [fasudil]

**Result**
1: 0; 2: 1; 3: 0; 4: 1; 5: 1; 6: 1; 7: 0; 8: 1
